- System: HIV-1 pseudotyped virus
- Protocol details: HIV-1 pseudotyped virus assay (luciferase reporter gene, single cycle of infection)
- Format: cell-based
- Test settings: Human immunodeficiency virus 1, CCR5, 72 h, read-out: Activity (antiviral activity, IC50)
pIC50: −log10 of the molar value.

{"Compound": "COc1cc(C(=O)C(=O)N2CCN(C(=O)c3ccccc3)C[C@H]2C)ccc1-c1cc(C)no1 [Example 185]", "pIC50": "> 5.30"}
{"Compound": "CC1CN(C(=O)c2ccccc2)CCN1C(=O)C(=O)c1ccc(-c2ccn(C)n2)cc1 (stereo not shown) [Example 172]", "pIC50": "> 5.30"}
{"Compound": "C[C@@H]1CN(C(=O)c2ccccc2)CCN1C(=O)C(=O)c1c[nH]c(-c2cccnc2)c1 [Example 196]", "pIC50": "< 5.30"}
{"Compound": "Cc1cc(C(=O)C(=O)N2CCN(C(=O)c3ccccc3)C[C@H]2C)ccc1-c1cc[nH]n1 [Example 184]", "pIC50": "> 5.30"}
